Would you mind telling me the reported MIC of each entry?
Tested on: Escherichia coli ATCC25922 strain
Assay: Antibacterial activity, MIC by broth microdilution (CLSI)
Type: cell-based
Answers are plain numbers, in µg/mL.

Guide cases for MIC, answers given:
INSERT INTO assay_data (molecule, target_under_test, readout_number) VALUES
  ('CNC(=O)[C@@](C)(C(=O)NO)N(C)C(=O)c1ccc(C#Cc2ccc(COCCO)cc2)cc1', 'Escherichia coli ATCC25922 strain', 0.25),
  ('CNC(=O)[C@@](C)(C(=O)NO)N(C)C(=O)c1ccc(C#Cc2ccc(C(O)COC)cc2)cc1 (stereo partly shown)', 'Escherichia coli ATCC25922 strain', 0.25),
  ('CNC(=O)[C@@](C)(C(=O)NO)N(C)C(=O)c1ccc(C#Cc2ccc([C@@H](C)O)cc2)cc1', 'Escherichia coli ATCC25922 strain', 0.125),
  ('CNC(=O)[C@@](C)(C(=O)NO)N(C)C(=O)c1ccc(C#Cc2ccc([C@H](O)COC)cc2)cc1', 'Escherichia coli ATCC25922 strain', 0.25),
  ('CNC(=O)[C@@](C)(C(=O)NO)N(C)C(=O)c1ccc(C#Cc2ccc(/C=C/COC)cc2)cc1', 'Escherichia coli ATCC25922 strain', 0.0625),
  ('CNC(=O)[C@@](C)(C(=O)NO)N(C)C(=O)c1ccc(C#Cc2ccc([C@H](O)CCO)cc2)cc1', 'Escherichia coli ATCC25922 strain', 0.5);

Now look at this entry.
Query: Please look up its MIC: CNC(=O)[C@@](C)(C(=O)NO)N(C)C(=O)c1ccc(C#Cc2ccc(C(C)OCCO)cc2)cc1 (stereo partly shown)
Reply: 0.5
